Test system: guinea pig Dopamine Transporter (DAT), gene 100714898
Assay Text: NVS_TR_gDAT: NovaScreen (NVS) Transporter Assay for guinea pig Dopamine Transporter (DAT) (AID 2283369);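 further: active compounds lower bound radioligand signal relative to DMSO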
Inconclusive results are not listed. Activity calls are given as the source filed them. How the source made its calls: active means hit-call score of the fitted dose curve at least 0.9, where 1 is the maximum; inconclusive means response in the unintended direction; inactive means score below 0.9.
Outcomes: active, inactive

Structure Smiles String | Measured On | Class
Cc1oc(-c2ccccc2)nc1CCOc1ccc(C[C@H](Nc2ccccc2C(=O)c2ccccc2)C(=O)O)cc1 | guinea pig Dopamine Transporter (DAT), gene 100714898 | active
O=C(O)Cc1cc(I)c(Oc2cc(I)c(O)c(I)c2)c(I)c1 | guinea pig Dopamine Transporter (DAT), gene 100714898 | inactive
CCN(CC)CCNc1ccc(CNC=O)c2sc3ccc(OC)cc3c(=O)c12 | guinea pig Dopamine Transporter (DAT), gene 100714898 | active
CCCOc1sc(C(=O)N2CCC(c3cc(CN)ccc3F)CC2)c(C)c1Br | guinea pig Dopamine Transporter (DAT), gene 100714898 | active

###

Measured On: Nuclear receptor subfamily 4 group A member 2 (Homo sapiens)
Assay Text: ATG_NURR1_TRANS: Attagene TRANS-FACTORIAL HepG2 Assay for human Nuclear Receptor Related Protein 1 (NURR1) (AID 2282985)
Protocol Conditions: HepG2 Attagene TRANS reporter, mRNA readout
Inconclusive results are not listed. Activity calls are given as the source filed them. The calls were made as follows: active = hit-call score of the fitted dose curve at least 0.9, where 1 is the maximum; inconclusive = response in the unintended direction; inactive = score below 0.9.
Outcomes: Y (active), N (inactive)

Compound | Class
CCc1nn(C2CCCCC2)c2cc(C3(C#N)CCC(C(=O)O)CC3)ccc12 (centres undefined) | N
Oc1cccc(O)c1 | N
O=[N+]([O-])c1ccc(O)cc1 | N
Cc1cc(CCN2CCN(c3nsc4ccccc34)CC2)cc2c1NC(=O)CC2(C)C | N
c1ccc2cc3c(ccc4ccccc43)cc2c1 | N
CC[C@H](c1ccc(O)cc1)[C@@H](CC)c1ccc(O)cc1 | N
CN1CCN(c2ccccc2/C=C2\SCCN(c3ccc(Cl)c(Cl)c3)C2=O)CC1 | N
O=C1OC2(c3ccccc31)c1cc(Br)c(O)c(Br)c1Oc1c2cc(Br)c(O)c1Br | N
C=C(C)C(=O)OCCC(F)(F)C(F)(F)C(F)(F)C(F)(F)C(F)(F)C(F)(F)F | N
COCC(C)O (centres undefined) | N
COC(=O)CCCCC(=O)OC | N
CN(C)C=O | Y
C#C[C@]1(O)CC[C@H]2[C@@H]3CCC4=CC(=O)CC[C@@H]4[C@H]3CC[C@@]21C | N
CCCCC(CC)COC(=O)CCCCC(=O)OCC(CC)CCCC (centres undefined) | N
CCCCCCCC(=O)O | N
O=c1c(-c2ccc(O)cc2)coc2cc(O)ccc12 | N
COc1cc(CCC(=O)CC(=O)CCc2ccc(O)c(OC)c2)ccc1O | N
CCC(=C(c1ccc(O)cc1)c1ccc(OCCN(C)C)cc1)c1ccccc1 | N
OC1CCC(C2CCCCC2)CC1 (centres undefined) | N

###

Assay Text: Tanguay_ZF_120hpf_AXIS_legacy: (Legacy) Oregon State University Tanguay Lab 120 Hour Post-fertilization zebrafish Assay for Body Axis Malformation (AID 2283635)
Inconclusive results are not listed. Active and inactive are the calls of the source. Rule for the calls: active = hit-call score of the fitted dose curve at least 0.9, where 1 is the maximum; inconclusive = response in the unintended direction; inactive = score below 0.9.
Outcomes: Y = active, N = inactive

Compound | Class
O=c1c(-c2ccc(O)cc2)coc2cc(O)ccc12 | N
CC[C@H](c1ccc(O)cc1)[C@@H](CC)c1ccc(O)cc1 | N
O=C(O)Cc1cc(I)c(Oc2cc(I)c(O)c(I)c2)c(I)c1 | Y
C#C[C@]1(O)CC[C@H]2[C@@H]3CCC4=CC(=O)CC[C@@H]4[C@H]3CC[C@@]21C | N
c1ccc2c(c1)ccc1ccccc12 | N
CCCCCCCCC(=O)O | N
CCCCCCCCCCCCc1ccccc1S(=O)(=O)O | N
Cc1cc(CCN2CCN(c3nsc4ccccc34)CC2)cc2c1NC(=O)CC2(C)C | Y
CC(C)(C)CC(C)(C)c1ccc(O)c(-n2nc3ccccc3n2)c1 | N
CCCOC(=O)c1ccc(O)cc1 | Y
c1ccc2cc3c(ccc4ccccc43)cc2c1 | Y
CCCCCCCCCCCCN1CCCC1=O | N
CCCCC(CC)COC(=O)CCCCC(=O)OCC(CC)CCCC (stereo not given) | N
CCCCCCCC(=O)O | N
O=C(O)c1ccccc1C(c1ccc(O)cc1)c1ccc(O)cc1 | N

###

Assay Text: APR_HepG2_CellCycleArrest_72hr: Apredica 72-hour HepG2 Assay for Cell Cycle Arrest (AID 2282914)
Protocol Conditions: high-content imaging, actives raise or lower the signal
Activity calls are given as the source filed them. Rule for the calls: active = hit-call score of the fitted dose curve at least 0.9, where 1 is the maximum; inactive = score below 0.9.
Measurement Label: AC50

Structure Smiles String | Measurement Label | Result
CCCOc1sc(C(=O)N2CCC(c3cc(CN)ccc3F)CC2)c(C)c1Br | AC50 | inactive
CCCCCCCCCCCCN1CCCC1=O | AC50 | 42.6 µM (active)
O=C(O)c1ccccc1C(c1ccc(O)cc1)c1ccc(O)cc1 | AC50 | 100 µM (active)
CN1CCN(c2ccccc2/C=C2\SCCN(c3ccc(Cl)c(Cl)c3)C2=O)CC1 | AC50 | inactive
C=C(C)C(=O)OCCC(F)(F)C(F)(F)C(F)(F)C(F)(F)C(F)(F)C(F)(F)F | AC50 | inactive
OC1CCCCC1 | AC50 | inactive

###

Read-out: CD38, CD38 (gene 952)
Assay Text: BSK_SAg_CD38: BioMAP Diversity Plus: SAg Assay for CD38 Biomarker Activity (AID 2283087)
Protocol Conditions: primary human HUVEC with PBMC; actives raise or lower the signal
The source made the active and inactive calls. Rule for the calls: active = hit-call score of the fitted dose curve at least 0.9, where 1 is the maximum; inactive = score below 0.9.
Outcomes: active, inactive

Compound | Class
CCCCCCCCCCCCCCCS(=O)(=O)Oc1ccccc1 | inactive
Nc1cccc2c(N)cccc12 | inactive
CCc1nn(C2CCCCC2)c2cc(C3(C#N)CCC(C(=O)O)CC3)ccc12 (centres undefined) | active
CN(C)C=O | inactive
c1ccc2c(c1)Cc1ccccc1-2 | inactive
CCCCOCCO | inactive
CCCOc1sc(C(=O)N2CCC(c3cc(CN)ccc3F)CC2)c(C)c1Br | active
ClC1=C(Cl)C(Cl)(Cl)C(Cl)=C1Cl | active
Oc1cccc(O)c1 | inactive
CC(O)CO (centres undefined) | inactive
CC(C)CCCCCCOC(=O)CCCCC(=O)OCCCCCCC(C)C | inactive
CC(C)(C)c1cccc(C(C)(C)C)c1O | inactive
CCCCCCCCCCCCCC[N+](C)(C)C | active
Cc1cc(CCN2CCN(c3nsc4ccccc34)CC2)cc2c1NC(=O)CC2(C)C | active

###

Read-out: Transforming Growth Factor (TGFA), TGFA (gene 7039)
Assay Text: LTEA_HepaRG_TGFA: Life Technologies and Expression Analysis (LTEA) Assay for Transforming Growth Factor (TGFA) using HepaRG (AID 2283532)
Protocol Conditions: mRNA level, 48 h; actives raise or lower the signal
Activity calls are given as the source filed them. The calls were made as follows: active = hit-call score of the fitted dose curve at least 0.9, where 1 is the maximum; inactive = score below 0.9.

Molecule | outcome
CC(C)(C)CC(C)(C)c1ccc(O)c(-n2nc3ccccc3n2)c1 | inactive
COc1ccc([N+](=O)[O-])cc1N | inactive
CCCCC(CC)COC(=O)CCCCC(=O)OCc1ccccc1 (stereo not given) | inactive
O=c1c(-c2ccc(O)cc2)coc2cc(O)ccc12 | inactive
CC(O)CO (stereo not given) | inactive

###

Read-out: CYP2E1 (gene 1571)
Assay Text: LTEA_HepaRG_CYP2E1: Life Technologies and Expression Analysis (LTEA) Assay for CYP2E1 using HepaRG (AID 2283485)
Protocol Conditions: mRNA level, 48 h; actives raise or lower the signal
Activity calls are given as the source filed them. How the source made its calls: active means hit-call score of the fitted dose curve at least 0.9, where 1 is the maximum; inactive means score below 0.9.

Compound | AC50
CC(=O)NC1(c2cccc(F)c2)CCN(CC[C@@]2(c3ccc(Cl)c(Cl)c3)CN(c3ccccc3)C(=O)CO2)CC1 | 11 µM (active)
CCC(C)(C)C1CCC(O)CC1 (centres undefined) | inactive
c1ccc2c(c1)ccc1ccccc12 | 10.1 µM (active)
c1ccc2cc3c(ccc4ccccc43)cc2c1 | 22.3 µM (active)
CCc1nn(C2CCCCC2)c2cc(C3(C#N)CCC(C(=O)O)CC3)ccc12 (centres undefined) | 60.6 µM (active)
COC(=O)CCCCC(=O)OC | inactive
CCCCCCCCC(=O)O | inactive
OCCC(F)(F)C(F)(F)C(F)(F)C(F)(F)C(F)(F)C(F)(F)C(F)(F)C(F)(F)F | inactive
CCCCCCCCOC(=O)CCCCCCCCC(=O)OCCCCCCCC | inactive
CCCOc1sc(C(=O)N2CCC(c3cc(CN)ccc3F)CC2)c(C)c1Br | inactive
CC(C)CCCCCCOC(=O)CCCCC(=O)OCCCCCCC(C)C | inactive
COCC(C)OCC(C)O (centres undefined) | inactive
CCCCC(CC)COC(=O)CCCCC(=O)OCC(CC)CCCC (centres undefined) | inactive
Nc1cccc2c(N)cccc12 | 50 µM (active)
CN1CCN(c2ccccc2/C=C2\SCCN(c3ccc(Cl)c(Cl)c3)C2=O)CC1 | 12.8 µM (active)
CCCOC(=O)c1ccc(O)cc1 | inactive
CN1CCC[C@H]1c1cccnc1 | inactive
CCCCOCCO | inactive
CC(C)(C)c1cc(C(C)(C)C)c(O)c(C(C)(C)C)c1 | 17 µM (active)
OCCC(F)(F)C(F)(F)C(F)(F)C(F)(F)C(F)(F)C(F)(F)F | inactive
CCCCCCCCCCCCCCCS(=O)(=O)Oc1ccccc1 | 14.1 µM (active)
OC1CCCCC1 | inactive
Cc1cc(CCN2CCN(c3nsc4ccccc34)CC2)cc2c1NC(=O)CC2(C)C | 66.2 µM (active)
C=C(C)C(=O)OCCC(F)(F)C(F)(F)C(F)(F)C(F)(F)C(F)(F)C(F)(F)F | 20.1 µM (active)
